All values here come from PubChem BioAssay (NCI).

Assay: NCI Yeast Anticancer Drug Screen. Data for the wt2 strain (AID 169);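 also: 0% = growth of vehicle-treated yeast cultures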
Conditions: S. cerevisiae wt2 strain growth inhibition; at 11.0 µM; hits give high values
About 79,000 compounds went through this panel and 15% of them were active in at least one assay; those are over-represented in the sample as a whole.
# maps each entry to its growth inhibition
The response must be a number in % with no trailing unit.

Reference set, count: 5
{"compound": "CCOC(=O)CC1(C(=O)OCC)c2[nH]c3ccccc3c2CCN1Cc1ccccc1 (stereo unspecified)", "valueUnit": "%", "growth inhibition": 0}
{"compound": "CN(C)CCNC(=O)c1cccc2cc([N+](=O)[O-])ccc12", "valueUnit": "%", "growth inhibition": 5}
{"compound": "CC(=O)OCC(C)Cc1cc2c(cc1Br)OCO2 (stereo unspecified)", "valueUnit": "%", "growth inhibition": 7}
{"compound": "COc1cc(/C=C2\\CCC/C(=C\\c3ccc(O)c(OC)c3)C2=O)ccc1O", "valueUnit": "%", "growth inhibition": 22}
{"compound": "CNC(=O)OCc1c(COC(=O)NC)c2n(c1C)-c1ccc(OC)cc1CCC2", "valueUnit": "%", "growth inhibition": -7}

-- ask Report measured growth inhibition; entry is CCN(CC)CCNc1ccc([N+](=O)[O-])c2nc3ccccc3c(N)c12
-- reply -2
